EXPERIMENT DESCRIPTION: Apparent permeability across apical to basal side in human Caco-2 cells at 10 uM incubated for 90 mins by LC-MS/MS analysis
MEASUREMENT KIND: Papp A→B at 1.5 h, 10 µM (×10⁻⁶ cm/s)

>  <SMILES REPR>
CNc1nc(-c2cn([C@@H]3[C@@H](O)[C@@H](Sc4cc(Cl)c(F)c(Cl)c4)O[C@H](CO)[C@@H]3O)nn2)cs1

>  <MEASUREMENT KIND>
Papp A→B at 1.5 h, 10 µM

>  <DISPLAY UNIT>
×10⁻⁶ cm/s

>  <COMPARATOR>
<

>  <READOUT NUMBER>
0.24

$$$$
>  <SMILES REPR>
OC[C@H]1O[C@H](Sc2cc(Cl)c(F)c(Cl)c2)[C@H](O)[C@@H](n2cc(-c3cscn3)nn2)[C@H]1O

>  <MEASUREMENT KIND>
Papp A→B at 1.5 h, 10 µM

>  <DISPLAY UNIT>
×10⁻⁶ cm/s

>  <COMPARATOR>
=

>  <READOUT NUMBER>
8.8

$$$$
>  <SMILES REPR>
CN(C)c1nc(-c2cn([C@@H]3[C@@H](O)[C@@H](Sc4cc(Cl)c(F)c(Cl)c4)O[C@H](CO)[C@@H]3O)nn2)cs1

>  <MEASUREMENT KIND>
Papp A→B at 1.5 h, 10 µM

>  <DISPLAY UNIT>
×10⁻⁶ cm/s

>  <COMPARATOR>
=

>  <READOUT NUMBER>
0.6

$$$$
>  <SMILES REPR>
CO[C@@H]1[C@@H](n2cc(-c3nccs3)nn2)[C@@H](O)[C@@H](CO)O[C@@H]1Sc1cc(Cl)c(F)c(Cl)c1

>  <MEASUREMENT KIND>
Papp A→B at 1.5 h, 10 µM

>  <DISPLAY UNIT>
×10⁻⁶ cm/s

>  <COMPARATOR>
=

>  <READOUT NUMBER>
20

$$$$
